Where these numbers come from: patent US12077566B2

Recorded Dissociation rate constant (koff) values for a group of molecules are listed next.
Target: EGFR extracellular domain (Homo sapiens, UniProt P00533)
Assay: Affinity test by surface plasmon resonance (Biacore T200, CM5 chip)
Assay type: binding
Settings: EGFR extracellular domain coupled on CM5 chip, analyte 4-256 nM

{"columns": ["MOLECULE", "UNITS SYMBOL", "Dissociation rate constant (koff)"],
 "data": [
  ["rLZ-8 (L17K): rLZ-8 mutant after surface potential optimization, L17K (protein) MSDTALIFRLAWDVKKKSFDYTPNWGRGNPNNFIDTVTFPKVLTDKAYTYRVAVSGRNLGVKPSYAVESDGSQKVNFLEYNSGYGIADTNTIQVFVVDPDTNNDFIIAQWN", "s⁻¹", "7.56e-05"],
  ["rLZ-8 (D20H): rLZ-8 mutant after surface potential optimization, D20H (protein) MSDTALIFRLAWDVKKLSFHYTPNWGRGNPNNFIDTVTFPKVLTDKAYTYRVAVSGRNLGVKPSYAVESDGSQKVNFLEYNSGYGIADTNTIQVFVVDPDTNNDFIIAQWN", "s⁻¹", 0.000432],
  ["rLZ-8 (K46E/K74E): rLZ-8 mutant K46E and K74E (protein) MSDTALIFRLAWDVKKLSFDYTPNWGRGNPNNFIDTVTFPKVLTDEAYTYRVAVSGRNLGVKPSYAVESDGSQEVNFLEYNSGYGIADTNTIQVFVVDPDTNNDFIIAQWN", "s⁻¹", 0.000614]
]}
